Recorded values, source patent US8778871B2.

target: hOT7T175 (Homo sapiens, UniProt Q969F8, L364H); construct: expressed in transfected cells; format: cell-based; details: hOT7T175/CHO, FLIPR, evaluation for 40 seconds after initiation of the reaction
Sequence (Q969F8 whole entry L364H): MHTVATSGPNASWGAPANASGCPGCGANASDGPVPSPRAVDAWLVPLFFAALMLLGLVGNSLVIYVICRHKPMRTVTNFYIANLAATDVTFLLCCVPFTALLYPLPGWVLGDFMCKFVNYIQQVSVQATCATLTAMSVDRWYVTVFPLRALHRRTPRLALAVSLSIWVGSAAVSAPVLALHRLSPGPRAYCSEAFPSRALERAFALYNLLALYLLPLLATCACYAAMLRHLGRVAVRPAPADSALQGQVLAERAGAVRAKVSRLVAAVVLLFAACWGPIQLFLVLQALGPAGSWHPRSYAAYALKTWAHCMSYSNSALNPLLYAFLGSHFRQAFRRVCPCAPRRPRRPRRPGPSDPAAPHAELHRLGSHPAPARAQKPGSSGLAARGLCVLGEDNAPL
REPORTED_ENDPOINT: Specific Act. (EC50/MS10 EC50)
Write no unit; give the number alone.

Problem: Provide hOT7T175 (Homo sapiens, UniProt Q969F8, L364H) Specific Act. (EC50/MS10 EC50) reading for 3-Phenylpropionyl-Asn-Ser-Phe-AzaGly-Leu-Arg(Me)-Trp-NH2 [Compound No. 499] .
Result: 1.4

----------
biological target: hOT7T175 (Homo sapiens, UniProt Q969F8, L364H); construct: expressed in transfected cells; type: cell-based; details: hOT7T175/CHO, FLIPR, evaluation for 40 seconds after initiation of the reaction
Non-standard residues stand in square brackets, D forms with d. Residues, ends and D or L forms follow the SMILES beside them. Arg(Me) = CNC(=N)NCCC[C@H](N)C(=O)O; Cha = N[C@@H](CC1CCCCC1)C(=O)O; Orn = NCCC[C@H](N)C(=O)O
REPORTED_ENDPOINT: Specific Act. (EC50/MS10 EC50)
Write no unit; give the number alone.

Sample answers from the record:
MOLECULE	REPORTED_ENDPOINT	MEAS_VALUE
CC(C)C[C@H](NC(=O)CNC(=O)[C@H](Cc1ccccc1)NC(=O)[C@H](CO)NC(=O)[C@H](CC(N)=O)NC(=O)[C@H](Cc1c[nH]c2ccccc12)NC(=O)[C@H](CC(N)=O)NC(=O)[C@@H](N)Cc1ccc(O)cc1)C(=O)N[C@@H](CCCN)C(=O)N[C@@H](Cc1ccccc1)C(N)=O [Compound No. 314] (H-YNWNSFGL[Orn]F-NH2)	Specific Act. (EC50/MS10 EC50)	4.4
CC(C)C[C@H](NC(=O)CNC(=O)[C@H](CC1CCCCC1)NC(=O)[C@H](CO)NC(=O)[C@H](CC(N)=O)NC(=O)[C@H](Cc1c[nH]c2ccccc12)NC(=O)[C@H](CC(N)=O)NC(=O)[C@@H](N)Cc1ccc(O)cc1)C(=O)N[C@@H](CCCNC(=N)N)C(=O)N[C@@H](Cc1ccccc1)C(N)=O [Compound No. 156] (H-YNWNS[Cha]GLRF-NH2)	Specific Act. (EC50/MS10 EC50)	0.9

Let us examine a further case.
Problem: Give the measured Specific Act. (EC50/MS10 EC50) for CNC(=N)NCCC[C@H](NC(=O)[C@H](CC(C)C)NC(=O)CNC(=O)[C@H](Cc1ccccc1)NC(=O)[C@H](CO)NC(=O)[C@H](CC(N)=O)NC(=O)[C@H](Cc1c[nH]c2ccccc12)NC(=O)[C@H](N)Cc1ccc(O)cc1)C(=O)N[C@@H](Cc1ccccc1)C(N)=O [Compound No. 217] (H-[dY]WNSFGL[Arg(Me)]F-NH2)
Result: 3.1
